Biological target: EGFR Del19/T790M/C797S (H1975-clone #28) (Homo sapiens, UniProt P00533, T790M/C797S, form not given)
Sequence (P00533 with tags, fused parts or gaps DEL746-750/T790M/C797S, form open): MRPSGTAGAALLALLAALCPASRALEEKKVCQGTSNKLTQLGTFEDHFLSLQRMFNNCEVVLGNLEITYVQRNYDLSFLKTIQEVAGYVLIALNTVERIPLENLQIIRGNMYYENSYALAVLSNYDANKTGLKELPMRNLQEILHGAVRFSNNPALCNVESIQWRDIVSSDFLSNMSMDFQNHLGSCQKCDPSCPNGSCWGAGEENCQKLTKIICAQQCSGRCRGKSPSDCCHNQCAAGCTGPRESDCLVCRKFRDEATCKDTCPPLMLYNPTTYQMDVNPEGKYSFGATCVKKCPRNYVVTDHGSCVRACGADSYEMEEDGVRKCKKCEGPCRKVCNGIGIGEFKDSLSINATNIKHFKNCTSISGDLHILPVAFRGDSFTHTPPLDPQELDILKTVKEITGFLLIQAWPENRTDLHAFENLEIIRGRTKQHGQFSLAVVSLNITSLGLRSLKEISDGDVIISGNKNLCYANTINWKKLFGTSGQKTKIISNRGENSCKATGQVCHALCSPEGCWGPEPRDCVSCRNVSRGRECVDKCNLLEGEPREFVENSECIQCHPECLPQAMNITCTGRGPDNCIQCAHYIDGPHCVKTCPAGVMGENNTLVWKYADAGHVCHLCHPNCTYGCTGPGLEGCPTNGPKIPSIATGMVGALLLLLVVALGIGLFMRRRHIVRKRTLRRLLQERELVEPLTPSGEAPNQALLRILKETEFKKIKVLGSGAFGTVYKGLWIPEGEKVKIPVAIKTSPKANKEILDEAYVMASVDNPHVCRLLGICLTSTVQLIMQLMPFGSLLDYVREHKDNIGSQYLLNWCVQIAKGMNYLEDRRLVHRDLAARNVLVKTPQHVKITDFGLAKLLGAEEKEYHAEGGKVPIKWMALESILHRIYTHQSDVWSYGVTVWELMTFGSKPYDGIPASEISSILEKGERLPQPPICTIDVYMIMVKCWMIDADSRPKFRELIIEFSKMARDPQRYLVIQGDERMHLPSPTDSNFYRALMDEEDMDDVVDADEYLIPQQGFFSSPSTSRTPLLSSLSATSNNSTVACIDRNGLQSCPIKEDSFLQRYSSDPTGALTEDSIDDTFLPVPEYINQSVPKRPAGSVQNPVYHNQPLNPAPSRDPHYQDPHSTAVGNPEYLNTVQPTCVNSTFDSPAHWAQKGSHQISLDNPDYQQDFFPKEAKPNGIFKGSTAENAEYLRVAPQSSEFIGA
Assay: EGFR degradation, HTRF total-EGFR assay, H1975-clone #28 (DTC)
Type: cell-based
Details: H1975-clone #28 Del19/T790M/C797S, 16 h treatment
Description: H1975-clone #28 (Del19/T790M/C797S, or abbr: DTC), H1975-clone #23 (Del19/C797S, or abbr: DC), H1975-clone #25 (L858R/T790M/C797S, or abbr: LTC) and H1975-clone #8 (L858R/C797S, or abbr: LC). […] The inhibition (degradation) percentage of the compound was calculated by the following equation: […] High control=Cell group with added DMSO and without compound, indicating microplate readings without EGFR degradation. […]
Task for the reader: assign each of the following compounds its reported Degradation H1975 # 28 DTC.
Numbers only.

# per-item lookup of Degradation H1975 # 28 DTC; items listed below
1. Cc1cc2cc(n1)-c1cnn(C)c1OC[C@H]1C[C@@H](CN3/C(=N/C2=O)Nc2ccc(N4C[C@@H]5C[C@H]4CN5C4CCN(c5ccc(C6CCC(=O)NC6=O)nc5C)CC4)cc23)C1 (stereo partly shown)
2. Cc1cc2cc(n1)-c1cnn(C)c1OC[C@H]1C[C@@H](CN3/C(=N/C2=O)Nc2ccc(N4CCN([C@@H]5CCN(c6cc(F)c([C@H]7CCC(=O)NC7=O)c(F)c6)C[C@@H]5F)CC4)cc23)C1
3. COC[C@@H]1CN(c2ccc3c(c2)N2C[C@H]4C[C@@H](COc5c(cnn5C)-c5cc(cc(C)n5)C(=O)/N=C/2N3)C4)CCN1C1CCN(c2ccc(C3CCC(=O)NC3=O)nc2C)CC1 (stereo partly shown)
4. Cc1cc2cc(n1)-c1cnn(C)c1OC[C@H]1C[C@@H](CN3/C(=N/C2=O)Nc2ccc(N(C)CC4CN(C5CCN(c6ccc(C7CCC(=O)NC7=O)nc6C)CC5)C4)cc23)C1 (stereo partly shown)

Result:
[78.2, 82.1, 81.0, 79.0]

Source listed as patent US20250332266A1.
